// data source = the supplement of paper PMC10126150

Tested on: ATP;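 further: ATP exposure 15 min at 22 °C before imaging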
TEST DETAILS: switch fluorescence ratio, 500 uM ATP over buffer (Cy3 cluster intensity, sum of 5 cycles each) (fold (ratio)); higher = stronger signal-on switching upon ATP binding; sequences stand for … in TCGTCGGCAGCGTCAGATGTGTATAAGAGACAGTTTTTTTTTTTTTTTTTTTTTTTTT…TC
MEASUREMENT SETUP: aptamer strand: ATP DNA aptamer (quencher-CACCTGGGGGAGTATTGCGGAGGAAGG + anchor), 100 nM annealed; ATP concentration: 500 uM
PARAMETER: switch fluorescence ratio
Enter a number only.

Task item: So what does the record say about switch fluorescence ratio for "TTGTTATTGG" ?
Reply: 0.978

Task item: So what does the record say about switch fluorescence ratio for "AGATGGTCTG" ?
Reply: 1.01

Task item: So what does the record say about switch fluorescence ratio for "GTAGTTCTAG" ?
Reply: 0.985

---

System: ATP;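 further: ATP exposure 15 min at 22 °C before imaging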
TEST DETAILS: switch fluorescence ratio, 500 uM ATP over buffer (Cy3 cluster intensity, sum of 5 cycles each) (fold (ratio)); higher = stronger signal-on switching upon ATP binding; sequences stand for … in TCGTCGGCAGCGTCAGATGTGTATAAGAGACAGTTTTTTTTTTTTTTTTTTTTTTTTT…TC
MEASUREMENT SETUP: aptamer strand: ATP DNA aptamer (quencher-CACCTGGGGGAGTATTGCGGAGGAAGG + anchor), 100 nM annealed; ATP concentration: 500 uM
PARAMETER: switch fluorescence ratio
Enter a number only.

CTCCGGCGGG ... 1.18

Task item: So what does the record say about switch fluorescence ratio for "TACTTTTCGT" ?
Reply: 0.995

Task item: So what does the record say about switch fluorescence ratio for "TATCCTTAGG" ?
Reply: 1.01

Task item: So what does the record say about switch fluorescence ratio for "CCCAAAGCGG" ?
Reply: 1.09

Task item: So what does the record say about switch fluorescence ratio for "GAGCTGCAGT" ?
Reply: 0.947

Task item: So what does the record say about switch fluorescence ratio for "TTTTATGTCT" ?
Reply: 0.976

Task item: So what does the record say about switch fluorescence ratio for "CGGTGGCGTC" ?
Reply: 1.01

---

System: ATP;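 further: ATP exposure 15 min at 22 °C before imaging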
TEST DETAILS: switch fluorescence ratio, 500 uM ATP over buffer (Cy3 cluster intensity, sum of 5 cycles each) (fold (ratio)); higher = stronger signal-on switching upon ATP binding; sequences stand for … in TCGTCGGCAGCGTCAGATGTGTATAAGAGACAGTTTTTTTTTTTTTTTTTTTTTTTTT…TC
MEASUREMENT SETUP: aptamer strand: ATP DNA aptamer (quencher-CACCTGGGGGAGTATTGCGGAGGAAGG + anchor), 100 nM annealed; ATP concentration: 500 uM
Recorded switch fluorescence ratio, one value per entry.
Enter a number only.

CTGGTTCACC ... 0.99
TATTTATTAG ... 0.991

In the following, a different sequence is considered.
Task item: API: value(readout=switch fluorescence ratio, system=ATP) for record "CGATGGGGTA"
Reply: 1.01

---

Test system: ATP;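 further: ATP exposure 15 min at 22 °C before imaging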
TEST DETAILS: switch fluorescence ratio, 500 uM ATP over buffer (Cy3 cluster intensity, sum of 5 cycles each) (fold (ratio)); higher = stronger signal-on switching upon ATP binding; sequences stand for … in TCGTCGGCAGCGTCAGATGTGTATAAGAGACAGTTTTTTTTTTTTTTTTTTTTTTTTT…TC
MEASUREMENT SETUP: aptamer strand: ATP DNA aptamer (quencher-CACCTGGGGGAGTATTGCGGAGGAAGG + anchor), 100 nM annealed; ATP concentration: 500 uM
PARAMETER: switch fluorescence ratio
Enter a number only.

# count of solved cases: 10
GACTTAGTTG ... 0.987
TGCAGAGGGC ... 1.03
TTTTTAACGT ... 1.02
TTTTAAACAG ... 1.03
CGGTTCTTGA ... 0.995
AGGTCGGTCT ... 0.995
TGTTTGGGAG ... 1.01
CAGGTGCTGG ... 1.17
TCCCAAATTT ... 0.983
ATTCGAGAAG ... 0.997

Task item: So what does the record say about switch fluorescence ratio for "CCAGTGGTTT" ?
Reply: 1.01

Task item: So what does the record say about switch fluorescence ratio for "GAACAGGGGG" ?
Reply: 1.01

Task item: So what does the record say about switch fluorescence ratio for "GTTTCAGTGT" ?
Reply: 0.972

Task item: So what does the record say about switch fluorescence ratio for "TAATGAAGCG" ?
Reply: 0.993

Task item: So what does the record say about switch fluorescence ratio for "TACGTCTTGG" ?
Reply: 1.04

Task item: So what does the record say about switch fluorescence ratio for "ATAACGCAGT" ?
Reply: 1

Task item: So what does the record say about switch fluorescence ratio for "ACTGATGACG" ?
Reply: 1.06

Task item: So what does the record say about switch fluorescence ratio for "TTCGTATGGG" ?
Reply: 1.09

Task item: So what does the record say about switch fluorescence ratio for "CTGTTTAATG" ?
Reply: 0.987

Task item: So what does the record say about switch fluorescence ratio for "CAATGTGTCT" ?
Reply: 1

Task item: So what does the record say about switch fluorescence ratio for "TAGAAAAGAG" ?
Reply: 1.01

Task item: So what does the record say about switch fluorescence ratio for "TTGCGCGGAC" ?
Reply: 2.34

Task item: So what does the record say about switch fluorescence ratio for "TAATTTTTTA" ?
Reply: 0.976

Task item: So what does the record say about switch fluorescence ratio for "TTTCGTCCAA" ?
Reply: 1.04

Task item: So what does the record say about switch fluorescence ratio for "CCTTTATGGC" ?
Reply: 0.947

Task item: So what does the record say about switch fluorescence ratio for "AGGACGCGAC" ?
Reply: 1.55

Task item: So what does the record say about switch fluorescence ratio for "CAAGAACGTT" ?
Reply: 0.997

Task item: So what does the record say about switch fluorescence ratio for "CTGGCTATTG" ?
Reply: 1.02

Task item: So what does the record say about switch fluorescence ratio for "AAGAAATTTT" ?
Reply: 0.984

---

Tested on: ATP;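 further: ATP exposure 15 min at 22 °C before imaging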
TEST DETAILS: switch fluorescence ratio, 500 uM ATP over buffer (Cy3 cluster intensity, sum of 5 cycles each) (fold (ratio)); higher = stronger signal-on switching upon ATP binding; sequences stand for … in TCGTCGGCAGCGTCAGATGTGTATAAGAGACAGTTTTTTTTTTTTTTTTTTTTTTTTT…TC
MEASUREMENT SETUP: aptamer strand: ATP DNA aptamer (quencher-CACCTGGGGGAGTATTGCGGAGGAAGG + anchor), 100 nM annealed; ATP concentration: 500 uM
PARAMETER: switch fluorescence ratio
Enter a number only.

# count of solved cases: 8
CTAAGAGGGA ... 0.999
TACGGATACT ... 1.27
TAGGGTTTTG ... 1.01
AAGGGCGAGC ... 0.985
CTGCGACTTT ... 1.02
TCTCTGGAGA ... 1.04
GTTTTTTGAA ... 0.976
GATGTCGAGA ... 1.02

Task item: So what does the record say about switch fluorescence ratio for "CAAGGTGGGG" ?
Reply: 1.03

Task item: So what does the record say about switch fluorescence ratio for "TGGAAGTGAG" ?
Reply: 0.969

Task item: So what does the record say about switch fluorescence ratio for "TGAAAAGGTT" ?
Reply: 0.983

Task item: So what does the record say about switch fluorescence ratio for "TGACGTTTGC" ?
Reply: 1.03

Task item: So what does the record say about switch fluorescence ratio for "TAGTTTTCGC" ?
Reply: 1

Task item: So what does the record say about switch fluorescence ratio for "GTGGATGGGG" ?
Reply: 1.05

Task item: So what does the record say about switch fluorescence ratio for "GCGCATCATT" ?
Reply: 0.986

Task item: So what does the record say about switch fluorescence ratio for "ATATAAGCCC" ?
Reply: 1.02

Task item: So what does the record say about switch fluorescence ratio for "CTTGGAGTGG" ?
Reply: 0.978

Task item: So what does the record say about switch fluorescence ratio for "TAGACCGGAG" ?
Reply: 1.04

Task item: So what does the record say about switch fluorescence ratio for "CGCTCCGCCT" ?
Reply: 2.36

---

Recorded switch fluorescence ratio, one value per entry.
Test system: ATP;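 further: ATP exposure 15 min at 22 °C before imaging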
TEST DETAILS: switch fluorescence ratio, 500 uM ATP over buffer (Cy3 cluster intensity, sum of 5 cycles each) (fold (ratio)); higher = stronger signal-on switching upon ATP binding; sequences stand for … in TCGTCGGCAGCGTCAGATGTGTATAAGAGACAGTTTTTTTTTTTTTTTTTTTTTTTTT…TC
MEASUREMENT SETUP: aptamer strand: ATP DNA aptamer (quencher-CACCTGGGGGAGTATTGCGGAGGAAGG + anchor), 100 nM annealed; ATP concentration: 500 uM
Enter a number only.

TAGCTCATTA ... 0.979
CGAAAACGGT ... 0.999
TGAAGGGGTG ... 0.989

Task item: So what does the record say about switch fluorescence ratio for "GCTATTATTA" ?
Reply: 0.974

Task item: So what does the record say about switch fluorescence ratio for "GAATAAGATT" ?
Reply: 1.01

Task item: So what does the record say about switch fluorescence ratio for "GGAATGGGTC" ?
Reply: 0.974

Task item: So what does the record say about switch fluorescence ratio for "GATATTTAGT" ?
Reply: 0.995

Task item: So what does the record say about switch fluorescence ratio for "AGGGTGGAAA" ?
Reply: 1.02
